Cited source for all entries: paper PMC7667546

target system: acetylcholinesterase (AChE) (Homo sapiens, UniProt P22303)
Construct: purchased Sigma-Aldrich (Steinheim, Germany)
Sequence (P22303 32-614, species assumed): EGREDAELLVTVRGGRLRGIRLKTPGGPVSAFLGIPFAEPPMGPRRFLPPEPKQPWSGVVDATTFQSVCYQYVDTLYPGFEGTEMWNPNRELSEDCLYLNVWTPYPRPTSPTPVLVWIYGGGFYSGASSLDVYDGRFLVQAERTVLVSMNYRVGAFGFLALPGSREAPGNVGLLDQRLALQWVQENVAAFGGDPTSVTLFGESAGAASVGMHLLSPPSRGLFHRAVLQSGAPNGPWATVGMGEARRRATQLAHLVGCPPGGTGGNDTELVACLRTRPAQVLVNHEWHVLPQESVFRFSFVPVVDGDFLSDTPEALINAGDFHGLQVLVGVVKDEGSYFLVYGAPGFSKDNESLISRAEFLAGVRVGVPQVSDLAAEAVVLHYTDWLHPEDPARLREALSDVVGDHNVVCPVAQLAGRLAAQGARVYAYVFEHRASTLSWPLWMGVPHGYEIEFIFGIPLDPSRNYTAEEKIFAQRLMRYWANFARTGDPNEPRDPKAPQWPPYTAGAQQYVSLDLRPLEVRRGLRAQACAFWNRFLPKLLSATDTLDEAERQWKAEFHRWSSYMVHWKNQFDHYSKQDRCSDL
experimental details: biochemical
cond: read-out: Inhibition (%) AChE
The compounds listed here are annotated with their inhibition at 10 µg/mL.
The reply should be a number in %, with the unit left off.

Study these solved cases before continuing.
Cc1coc2c1C(=O)C(=O)c1c-2ccc2c1CCCC2(C)C: 32.3
Cc1coc2c1C(=O)C(=O)c1c-2ccc2c(C)cccc12: 31.3
C[C@H]1COC2=C1C(=O)C(=O)c1c2ccc2c1CCCC2(C)C: 17.5

For the compound shown here, Cc1cccc2c3c(ccc12)C1=C(C(=O)C3=O)[C@@H](C)CO1 [Compound 6, Dihydrotanshinone I] , give the reported inhibition at 10 µg/mL. 64.5

====

target system: acetylcholinesterase (AChE) (Homo sapiens)
Construct: purchased Sigma-Aldrich (Steinheim, Germany)
experimental details: biochemical
cond: 10µg/mL; mean ± S.D. of three measurements; N.A. = not active; read-out: Inhibition (%) AChE
Given measured inhibition at 10 µg/mL, output Criterion met if it is greater than or equal to 20% and Criterion not met if not.

O=C(/C=C/c1ccc(O)c(O)c1/C=C/c1ccc(O)c(O)c1)O[C@H](Cc1ccc(O)c(O)c1)C(=O)O: Criterion met
CC(C)c1cc2c(c(O)c1O)[C@@]1(C(=O)O)CCCC(C)(C)[C@@H]1CC2: Criterion met
COc1ccc(-c2cc(=O)c3c(O)c(OC)c(OC)cc3o2)cc1: Criterion met

Quick check, inhibition at 10 µg/mL >= 20%? `CC(C)c1cc2c(c(O)c1O)[C@@]13CCCC(C)(C)[C@@H]1C[C@@H]2OC3=O` Criterion met

Quick check, inhibition at 10 µg/mL >= 20%? `O=C(/C=C/c1ccc(O)c2c1[C@H](C(=O)O[C@H](Cc1ccc(O)c(O)c1)C(=O)O)[C@@H](c1ccc(O)c(O)c1)O2)O[C@H](Cc1ccc(O)c(O)c1)C(=O)O` Criterion not met

====

The compounds listed here are annotated with their IC50.
target system: acetylcholinesterase (AChE) (Homo sapiens)
Construct: purchased Sigma-Aldrich (Steinheim, Germany)
experimental details: biochemical
cond: assayed at 100-0.1 µg/mL; mean ± S.D.; N.A. = not active; read-out: IC50 AChE (converted)
The reply should be a number in µM, with the unit left off.

CC(C)c1cc2c(c(O)c1O)[C@@]1(C(=O)O)CCCC(C)(C)[C@@H]1CC2: 95.7

Query compound follows.
For the compound shown here, `CC(C)c1cc2c(c(O)c1O)[C@@]13CCCC(C)(C)[C@@H]1C[C@@H]2OC3=O` , give the reported IC50. 33.7

====

Test system: tyrosinase
experimental details: Tyrosinase inhibition in vitro
Format: biochemical, mushroom
cond: 10µg/mL; mean ± S.D. of three measurements; N.A. = not active
From the text: Details of all biological activity and molecular modeling studies are given as supplementary material. The enzyme activities of the extracts were studied by observing urease, tyrosinase acetyl- and butyryl-cholinesterase inhibition activities ([22]-[25]). The ligands were then applied with partial atomic charges derived by ﬁtting Antechamber obtained by electronic structure calculation module in AMBER and assigned the AM1-BCC charges ([26]-[29]).
Where a name gives a salt, the structure may show the parent alone.
quantity: Inhibition (%) Tyrosinase
The reply should be a number in %, with the unit left off.

Study these solved cases before continuing.
O=c1cc(CO)occ1O [Kojic acid, reference compound]: 69.07
CC(C)c1cc2c(c(O)c1O)[C@@]1(C(=O)O)CCCC(C)(C)[C@@H]1CC2: 5.92
O=C(O)C(O)Cc1ccc(O)c(O)c1 (centres unmarked) [Compound 11, Danshensu Salt]: 6.20
O=C(/C=C/c1ccc(O)c(O)c1)O[C@H](Cc1ccc(O)c(O)c1)C(=O)O: 12.11

For the molecule shown here, `Cc1coc2c1C(=O)C(=O)c1c-2ccc2c(C)cccc12` , give the reported Inhibition (%) Tyrosinase. 39.82
